Biological target: OXA-48 (Klebsiella pneumoniae)
Construct: made in house; host or cells: E. coli
Assay: biochemical
pIC50: −log10 of the molar value.

- molecule: "Cn1c2c(c3scnc31)C1CN(C2)C(=O)N1OS(=O)(=O)O (stereo not shown)"
  pIC50: 8.92

###

Molecular target: CTX-M-15 (Escherichia coli)
Construct: made in house; host or cells: E. coli
Assay: biochemical
Conditions: class (A); nitrocefin 200 μM, 30 min pre-incubation, room temperature; read-out: BLA IC50 CTX-M-15

- molecule: "O=C1N2Cc3c(sc4ccccc34)C(C2)N1OS(=O)(=O)[O-].[Na+] (centres unmarked) [Example 1, sulfate]"
  IC50: "1 nM"
- molecule: "CCN(CC)C(=O)N1CCc2sc3c(c2C1)CN1CC3N(OS(=O)(=O)O)C1=O (centres unmarked)"
  IC50: "1.3 nM"
- molecule: "NC(=O)[C@@H]1c2c(sc3ccccc23)[C@@H]2CN1C(=O)N2OS(=O)(=O)[O-].[Na+] (relative stereo) [Example 3, sulfate]"
  IC50: "2.5 nM"
- molecule: "O=C1N2Cc3nc4ccccc4cc3C(C2)N1OS(=O)(=O)[O-].[Na+] (centres unmarked)"
  IC50: "9.9 nM"
- molecule: "CCOC(=O)[C@@H]1c2c(sc3ccccc23)[C@@H]2CN1C(=O)N2OS(=O)(=O)[O-].[Na+] (relative stereo) [Example 2, sulfate]"
  IC50: "2.6 nM"
- molecule: "O=C1N2Cc3c(sc4c3CNCC4)C(C2)N1OS(=O)(=O)O (centres unmarked)"
  IC50: "6.1 nM"
- molecule: "O=C1N2Cc3nc4cnccc4cc3C(C2)N1OS(=O)(=O)[O-].[Na+] (centres unmarked) [Example 5, sulfate]"
  IC50: "14 nM"
- molecule: "CCOC(=O)[C@@H]1c2c(n(C)c3ccccc23)[C@@H]2CN1C(=O)N2OS(=O)(=O)[O-].[Na+] (relative stereo) [Example 6, sulfate]"
  IC50: "1.5 nM"

###

Reported MIC for target or system E. coli ECO 190317, by entry.

- molecule: "CCN(CC)C(=O)N1CCc2sc3c(c2C1)CN1CC3N(OS(=O)(=O)O)C1=O (stereo not shown)"
  MIC: "> 32 µg/mL"
- molecule: "CCOC(=O)[C@@H]1c2c(n(C)c3ccccc23)[C@@H]2CN1C(=O)N2OS(=O)(=O)[O-].[Na+] (relative stereo)"
  MIC: "> 32 µg/mL"
- molecule: "O=C1N2Cc3c(sc4ccccc34)C(C2)N1OS(=O)(=O)[O-].[Na+] (stereo not shown)"
  MIC: "16 µg/mL"
- molecule: "NC(=O)[C@@H]1c2c(sc3ccccc23)[C@@H]2CN1C(=O)N2OS(=O)(=O)[O-].[Na+] (relative stereo)"
  MIC: "8 µg/mL"

###

Target: KPC-2 (Klebsiella pneumoniae)
Construct: made in house; host or cells: E. coli
Assay: biochemical
Conditions: class (A); nitrocefin 200 μM, 30 min pre-incubation, room temperature; read-out: BLA IC50 KPC-2
pIC50: −log10 of the molar value.

- molecule: "CCOC(=O)[C@@H]1c2c(sc3ccccc23)[C@@H]2CN1C(=O)N2OS(=O)(=O)[O-].[Na+] (relative stereo) [Example 2, sulfate]"
  assayedSystem: "KPC-2 (Klebsiella pneumoniae)"
  pIC50: 9.03
- molecule: "O=C1N2Cc3nc4cnccc4cc3C(C2)N1OS(=O)(=O)[O-].[Na+] (stereo not shown) [Example 5, sulfate]"
  assayedSystem: "KPC-2 (Klebsiella pneumoniae)"
  pIC50: 6.80
- molecule: "CCOC(=O)[C@@H]1c2c(n(C)c3ccccc23)[C@@H]2CN1C(=O)N2OS(=O)(=O)[O-].[Na+] (relative stereo) [Example 6, sulfate]"
  assayedSystem: "KPC-2 (Klebsiella pneumoniae)"
  pIC50: 8.38
- molecule: "CCN(CC)C(=O)N1CCc2sc3c(c2C1)CN1CC3N(OS(=O)(=O)O)C1=O (stereo not shown)"
  assayedSystem: "KPC-2 (Klebsiella pneumoniae)"
  pIC50: 7.59

###

Target: SHV-1 (Klebsiella pneumoniae)
pIC50: −log10 of the molar value.
Recorded pIC50 determines the group label, using bucket A = under 8, bucket B = from 8 up to 9, bucket C = 9 and over

- molecule: "CCOC(=O)[C@@H]1c2c(sc3ccccc23)[C@@H]2CN1C(=O)N2OS(=O)(=O)[O-].[Na+] (relative stereo) [Example 2, sulfate]"
  answerLabel: "bucket C"
- molecule: "NC(=O)[C@@H]1c2c(sc3ccccc23)[C@@H]2CN1C(=O)N2OS(=O)(=O)[O-].[Na+] (relative stereo) [Example 3, sulfate]"
  answerLabel: "bucket B"
- molecule: "CCOC(=O)[C@@H]1c2c(n(C)c3ccccc23)[C@@H]2CN1C(=O)N2OS(=O)(=O)[O-].[Na+] (relative stereo) [Example 6, sulfate]"
  answerLabel: "bucket C"
- molecule: "O=C1N2Cc3nc4cnccc4cc3C(C2)N1OS(=O)(=O)[O-].[Na+] (stereo not drawn) [Example 5, sulfate]"
  answerLabel: "bucket A"
- molecule: "O=C1N2Cc3nc4ccccc4cc3C(C2)N1OS(=O)(=O)[O-].[Na+] (stereo not drawn)"
  answerLabel: "bucket A"
- molecule: "O=C1N2Cc3c(sc4c3CNCC4)C(C2)N1OS(=O)(=O)O (stereo not drawn)"
  answerLabel: "bucket A"
- molecule: "O=C1N2Cc3c(sc4ccccc34)C(C2)N1OS(=O)(=O)[O-].[Na+] (stereo not drawn) [Example 1, sulfate]"
  answerLabel: "bucket B"

###

Target: OXA-1 (Escherichia coli, UniProt P13661)
Construct: made in house; host or cells: E. coli
Assay: biochemical
Details: class (D); nitrocefin 200 μM, 30 min pre-incubation, room temperature; read-out: BLA IC50 OXA-1
pIC50: −log10 of the molar value.

- molecule: "O=C1N2Cc3nc4cnccc4cc3C(C2)N1OS(=O)(=O)[O-].[Na+] (centres unmarked) [Example 5, sulfate]"
  assayedSystem: "OXA-1 (Escherichia coli, UniProt P13661)"
  pIC50: 5.77
- molecule: "CCOC(=O)[C@@H]1c2c(n(C)c3ccccc23)[C@@H]2CN1C(=O)N2OS(=O)(=O)[O-].[Na+] (relative stereo) [Example 6, sulfate]"
  assayedSystem: "OXA-1 (Escherichia coli, UniProt P13661)"
  pIC50: 5.89
- molecule: "O=C1N2Cc3c(sc4c3CNCC4)C(C2)N1OS(=O)(=O)O (centres unmarked) [Example 8]"
  assayedSystem: "OXA-1 (Escherichia coli, UniProt P13661)"
  pIC50: 4.82
- molecule: "O=C1N2Cc3c(sc4ccccc34)C(C2)N1OS(=O)(=O)[O-].[Na+] (centres unmarked) [Example 1, sulfate]"
  assayedSystem: "OXA-1 (Escherichia coli, UniProt P13661)"
  pIC50: 6.92
- molecule: "CCN(CC)C(=O)N1CCc2sc3c(c2C1)CN1CC3N(OS(=O)(=O)O)C1=O (centres unmarked) [Example 7]"
  assayedSystem: "OXA-1 (Escherichia coli, UniProt P13661)"
  pIC50: 5.29
- molecule: "NC(=O)[C@@H]1c2c(sc3ccccc23)[C@@H]2CN1C(=O)N2OS(=O)(=O)[O-].[Na+] (relative stereo) [Example 3, sulfate]"
  assayedSystem: "OXA-1 (Escherichia coli, UniProt P13661)"
  pIC50: 6.72
- molecule: "CCOC(=O)[C@@H]1c2c(sc3ccccc23)[C@@H]2CN1C(=O)N2OS(=O)(=O)[O-].[Na+] (relative stereo) [Example 2, sulfate]"
  assayedSystem: "OXA-1 (Escherichia coli, UniProt P13661)"
  pIC50: 7.43
- molecule: "O=C1N2Cc3nc4ccccc4cc3C(C2)N1OS(=O)(=O)[O-].[Na+] (centres unmarked) [Example 4]"
  assayedSystem: "OXA-1 (Escherichia coli, UniProt P13661)"
  pIC50: 5.39

###

Below, each of the compounds is paired with its reported MIC value.
Tested on: E. coli ECO 190317

- compound: "O=C1N2Cc3nc4ccccc4cc3C(C2)N1OS(=O)(=O)[O-].[Na+] (stereo not drawn)"
  valueUnits: "µg/mL"
  modifierSign: "="
  MIC: 8
- compound: "CC(C)(O/N=C(\\C(=O)N[C@@H]1C(=O)N2C(C(=O)[O-])=C(C[n+]3ccccc3)CS[C@H]12)c1csc(N)n1)C(=O)O [CAZ, Ceftazidime, reference compound]"
  valueUnits: "µg/mL"
  modifierSign: "="
  MIC: 128
- compound: "O=C1N2Cc3c(sc4c3CNCC4)C(C2)N1OS(=O)(=O)O (stereo not drawn)"
  valueUnits: "µg/mL"
  modifierSign: "="
  MIC: 1
- compound: "CCOC(=O)[C@@H]1c2c(sc3ccccc23)[C@@H]2CN1C(=O)N2OS(=O)(=O)[O-].[Na+] (relative stereo)"
  valueUnits: "µg/mL"
  modifierSign: ">"
  MIC: 32
- compound: "O=C1N2Cc3nc4cnccc4cc3C(C2)N1OS(=O)(=O)[O-].[Na+] (stereo not drawn)"
  valueUnits: "µg/mL"
  modifierSign: "="
  MIC: 4
- compound: "Cn1c2c(c3scnc31)C1CN(C2)C(=O)N1OS(=O)(=O)O (stereo not drawn)"
  valueUnits: "µg/mL"
  modifierSign: ">"
  MIC: 32

These measurements were taken from patent US11530227B2.
